Data credit: patent US8846699B2

Record type: pIC50 measurement. Applies to: EGFR1 (HER-1) (Homo sapiens (Human), UniProt P00533)
pIC50: −log10 of the molar value.
Measured Metric: pIC50

Molecule	Experimental Target	Measured Metric	Measured Number
C=CC(=O)Nc1cc2c(Nc3ccc(Br)c(Cl)c3F)ncnc2cc1OCCNC(C)=O	EGFR1 (HER-1) (Homo sapiens (Human), UniProt P00533)	pIC50	7.89
C=CC(=O)Nc1cc2c(Nc3ccc(Br)cc3F)ncnc2cc1OCCNC(=O)CN1CC=CC1	EGFR1 (HER-1) (Homo sapiens (Human), UniProt P00533)	pIC50	7.49
C=CC(=O)Nc1cc2c(Nc3ccc(Br)c(Cl)c3F)ncnc2cc1OCCNC(=O)CCOC	EGFR1 (HER-1) (Homo sapiens (Human), UniProt P00533)	pIC50	7.68
C=CC(=O)Nc1cc2c(Nc3ccc(Br)cc3F)ncnc2cc1OCC1CCN(C(=O)NC(C)(C)C)CC1	EGFR1 (HER-1) (Homo sapiens (Human), UniProt P00533)	pIC50	7.85
C=CC(=O)Nc1cc2c(Nc3ccc(Br)cc3F)ncnc2cc1OCCNC(=O)CSC	EGFR1 (HER-1) (Homo sapiens (Human), UniProt P00533)	pIC50	7.41
C=CC(=O)Nc1cc2c(Nc3ccc(Br)cc3F)ncnc2cc1OCCNC(=O)C(F)(F)F	EGFR1 (HER-1) (Homo sapiens (Human), UniProt P00533)	pIC50	7.64
C=CC(=O)Nc1cc2c(Nc3ccc(Br)c(Cl)c3F)ncnc2cc1OCC(C)NC(=O)CN(C)C (stereo not shown)	EGFR1 (HER-1) (Homo sapiens (Human), UniProt P00533)	pIC50	7.06
C=CC(=O)Nc1cc2c(Nc3ccc(Cl)cc3Cl)ncnc2cc1OCCNC(C)=O	EGFR1 (HER-1) (Homo sapiens (Human), UniProt P00533)	pIC50	7.31
C=CC(=O)Nc1cc2c(Nc3ccc(Br)c(Cl)c3F)ncnc2cc1OC[C@H](C)NC(=O)CN(C)C [Example 158]	EGFR1 (HER-1) (Homo sapiens (Human), UniProt P00533)	pIC50	7.64
C=CC(=O)Nc1cc2c(Nc3ccc(F)c(Cl)c3)ncnc2cc1OCCNC(C)=O	EGFR1 (HER-1) (Homo sapiens (Human), UniProt P00533)	pIC50	7.92
C=CC(=O)Nc1cc2c(Nc3ccc(Br)cc3F)ncnc2cc1OCCNC(=O)C(C)N(C)C (stereo not shown)	EGFR1 (HER-1) (Homo sapiens (Human), UniProt P00533)	pIC50	6.90
C=CC(=O)Nc1cc2c(Nc3cc(OC)c(Cl)cc3F)ncnc2cc1OCCNC(C)=O	EGFR1 (HER-1) (Homo sapiens (Human), UniProt P00533)	pIC50	7.10
C=CC(=O)Nc1cc2c(Nc3ccc(Br)cc3F)ncnc2cc1OCCNC(=S)NC	EGFR1 (HER-1) (Homo sapiens (Human), UniProt P00533)	pIC50	7.01
C=CC(=O)Nc1cc2c(Nc3ccc(Br)cc3F)ncnc2cc1OCC(C)NC(=O)CN(C)C (stereo not shown)	EGFR1 (HER-1) (Homo sapiens (Human), UniProt P00533)	pIC50	6.76
C=CC(=O)Nc1cc2c(Nc3ccc(Br)cc3F)ncnc2cc1OCCCNC(=O)C(F)(F)F	EGFR1 (HER-1) (Homo sapiens (Human), UniProt P00533)	pIC50	7.23
C=CC(=O)Nc1cc2c(Nc3ccc(Br)cc3F)ncnc2cc1OCC(NC(=O)CN(C)C)C(C)C (stereo not shown)	EGFR1 (HER-1) (Homo sapiens (Human), UniProt P00533)	pIC50	6.83

###

biological target: UniProt:P00533
Note to self: use true (1) only for IC50 readings below 70 nM; a reading exactly at 70 nM still gets false (0).

Compound	Class Assignment
C=CC(=O)Nc1cc2c(Nc3ccc(Br)c(Cl)c3F)ncnc2cc1OCCNC(=O)COC [Example 146]	false (0)
C=CC(=O)Nc1cc2c(Nc3ccc(Br)cc3F)ncnc2cc1OCC1=NCCO1 [Example 109]	false (0)
C=CC(=O)Nc1cc2c(Nc3ccc(F)c(F)c3F)ncnc2cc1OCCNC(C)=O [Example 118]	true (1)
C=CC(=O)Nc1cc2c(Nc3cc(Cl)c(Br)cc3F)ncnc2cc1OCCNC(=O)CC [Example 134]	true (1)
C=CC(=O)Nc1cc2c(Nc3ccc(Br)cc3F)ncnc2cc1OCCNC(=O)C1CC1 [Example 21]	true (1)
C=CC(=O)Nc1cc2c(Nc3ccc(Br)cc3F)ncnc2cc1OCCNC(=O)CN(CC)CC [Example 167]	true (1)
C=CC(=O)Nc1cc2c(Nc3ccc(Br)cc3F)ncnc2cc1OCC1CCN(C(=O)C=C)CC1 [Example 5]	true (1)
C=CC(=O)Nc1cc2c(Nc3ccc(Br)cc3F)ncnc2cc1OCCNC(=O)CS(C)(=O)=O [Example 47]	true (1)
C=CC(=O)Nc1cc2c(Nc3ccc(Br)cc3F)ncnc2cc1OCC1CCN(C(=O)C(F)(F)F)CC1 [Example 2]	true (1)
C=CC(=O)Nc1cc2c(Nc3ccc(Br)cc3F)ncnc2cc1OCCNC(=O)CC [Example 27]	true (1)
C=CC(=O)Nc1cc2c(Nc3ccc(Br)cc3F)ncnc2cc1OCCNC [Example 30]	false (0)
C=CC(=O)Nc1cc2c(Nc3ccc(Br)cc3F)ncnc2cc1OCCCNC(=O)CC [Example 87]	true (1)
C=CC(=O)Nc1cc2c(Nc3ccc(Br)c(Cl)c3F)ncnc2cc1OCCNC(=O)OC [Example 165]	false (0)
C=CC(=O)Nc1cc2c(Nc3ccc(Br)cc3F)ncnc2cc1OCCN [Example 29]	true (1)
C=CC(=O)Nc1cc2c(Nc3ccc(Br)cc3F)ncnc2cc1OCCNC(=O)N1CCNCC1 [Example 94]	false (0)

###

test system: breast cancer cell line, SK-Br3; assay: Inhibitory effect on growth of cancer cell line SK-Br3, SRB; type: cell-based; settings: Homo sapiens, SK-BR-3, 72 h, overexpressed EGFR2 (HER-2)
The following compounds are shown together with reported IC50 values.

Compound	Experimental Target	Quantity Unit	IC50
C=CC(=O)Nc1cc2c(Nc3ccc(Br)cc3F)ncnc2cc1OCCNCC(C)=O [Example 55]	breast cancer cell line, SK-Br3	nM	437
C=CC(=O)Nc1cc2c(Nc3ccc(Br)c(F)c3F)ncnc2cc1OCCNC(=O)CCN(CC)CC [Example 125]	breast cancer cell line, SK-Br3	nM	242
C=CC(=O)Nc1cc2c(Nc3ccc(Br)cc3F)ncnc2cc1OCCNC(C)=O [Example 18]	breast cancer cell line, SK-Br3	nM	137
C=CC(=O)Nc1cc2c(Nc3ccc(Br)cc3F)ncnc2cc1OC1CCCN(C(C)=O)C1 (centres unmarked) [Example 89]	breast cancer cell line, SK-Br3	nM	965
C=CC(=O)Nc1cc2c(Nc3ccc(Cl)nc3)ncnc2cc1OCCNC(C)=O [Example 128]	breast cancer cell line, SK-Br3	nM	95
C=CC(=O)Nc1cc2c(Nc3cc(Cl)c(Br)cc3F)ncnc2cc1OCCNC(=O)CC [Example 134]	breast cancer cell line, SK-Br3	nM	62
C=CC(=O)Nc1cc2c(Nc3ccc(Br)cc3F)ncnc2cc1OCCNC(=O)CSC [Example 46]	breast cancer cell line, SK-Br3	nM	198
C=CC(=O)Nc1cc2c(Nc3ccc(Cl)cc3Cl)ncnc2cc1OCCNC(C)=O [Example 113]	breast cancer cell line, SK-Br3	nM	289

###

Parameter: IC50. Scope: all listed entries.
test system: skin cancer cell line, A431; experiment: Inhibitory effect on growth of cancer cell line A431, SRB; format: cell-based; settings: Homo sapiens, A-431, 72 h, overexpressed EGFR1 (HER-1)

Compound	Experimental Target	IC50
C=CC(=O)Nc1cc2c(Nc3ccc(Br)cc3F)ncnc2cc1OCCNC(=O)C(F)(F)F	skin cancer cell line, A431	76 nM
C=CC(=O)Nc1cc2c(Nc3ccc(Br)c(Cl)c3F)ncnc2cc1OCCNC(=O)NC(C)(C)C	skin cancer cell line, A431	59 nM
C=CC(=O)Nc1cc2c(Nc3ccc(Br)cc3F)ncnc2cc1OCCNC(=O)CCOC	skin cancer cell line, A431	72 nM
C=CC(=O)Nc1cc2c(Nc3ccc(Br)cc3F)ncnc2cc1OCCNC(=O)N1CCN(C)CC1	skin cancer cell line, A431	21 nM

###

pIC50: −log10 of the molar value.
// pIC50 collected for EGFR1 (HER-1) (Homo sapiens (Human), UniProt P00533)

Compound	pIC50
C=CC(=O)Nc1cc2c(Nc3ccc(Br)c(Cl)c3F)ncnc2cc1OC[C@@H](C)NC(=O)CN(C)C [Example 159]	6.54
C=CC(=O)Nc1cc2c(Nc3ccc(Br)cc3C(F)(F)F)ncnc2cc1OCCNC(C)=O	6.34
C=CC(=O)Nc1cc2c(Nc3ccc(Br)cc3F)ncnc2cc1OCCOC	7.60
C=CC(=O)Nc1cc2c(Nc3ccc(Br)cc3F)ncnc2cc1OCC1CCN(C(=O)NCCC)CC1	7.44
C=CC(=O)Nc1cc2c(Nc3ccc(Br)cc3F)ncnc2cc1OCCN(C)C	8.05
C=CC(=O)Nc1cc2c(Nc3ccc(Br)c(Cl)c3)ncnc2cc1OCCNC(=O)CN(C)C	7.12
C=CC(=O)Nc1cc2c(Nc3ccc(Br)cc3F)ncnc2cc1OCc1ccncc1	7.25
C=CC(=O)Nc1cc2c(Nc3c(F)cc(Br)cc3F)ncnc2cc1OCCNC(=O)CN(C)C	6.76
C=CC(=O)Nc1cc2c(Nc3ccc(Br)cc3F)ncnc2cc1OCCNC(=O)NC(C)CC (stereo not shown)	7.70
C=CC(=O)Nc1cc2c(Nc3ccc(F)cc3F)ncnc2cc1OCCNC(=O)CN(C)C	6.81
